// reported viability at 48 h, 1 µM per item
assay.summary: MTT cell viability assay, compounds at 5, 1 and 0.2 μM, 48 hours
Type: cell-based
reported.conditions: human, A549 tumor cells, 1 μM

See these solved cases before continuing.
entry.smiles: FC(F)(F)c1cccc(Nc2nnc(-c3ccc(Oc4ccncc4)c(Cl)c3)[nH]2)c1
reported.result: > 70%
//
entry.smiles: CSc1nc(N)cc(Sc2ccc(-c3nnc(Nc4cccc(C(F)(F)F)c4)[nH]3)cc2)n1
reported.result: < 50%
//
entry.smiles: Cc1ccc2nccc(Oc3ccc(-c4nnc(Nc5cccc(C(F)(F)F)c5)[nH]4)cc3)c2c1
reported.result: > 70%

Per the records, this compound ( COc1nccc(Oc2ccc(-c3nnc(Nc4cccc(C(F)(F)F)c4)[nH]3)cc2)n1 ) has viability at 48 h, 1 µM equal to > 70%

----------
assay.summary: MTT cell viability assay, compounds at 5, 1 and 0.2 μM, 48 hours
Type: cell-based
reported.conditions: human, A549 tumor cells, 0.2 μM compound
// reported viability at 48 h, 0.2 µM per item

See these solved cases before continuing.
entry.smiles: CSc1nc(N)cc(Oc2ccc(-c3cnc(Nc4cccc(C(F)(F)F)c4)[nH]3)cc2)n1
viability at 48 h, 0.2 µM: < 50%

entry.smiles: COc1ccc2c(Oc3cc(-c4nnc(Nc5cccc(C(F)(F)F)c5)[nH]4)ccc3C)ccnc2c1
viability at 48 h, 0.2 µM: > 70%

entry.smiles: CN(C)c1cc(Oc2ccc(-c3nnc(Nc4cccc(C(F)(F)F)c4)[nH]3)cc2)c2ccccc2n1
viability at 48 h, 0.2 µM: > 70%

entry.smiles: COc1ccc2c(Oc3ccc(Nc4nnc(-c5cccc(Cl)c5)[nH]4)cc3)ccnc2c1
viability at 48 h, 0.2 µM: > 70%

Per the records, this molecule ( COc1ccc2c(Oc3ccc(-c4cnc(Nc5cccc(C(F)(F)F)c5)[nH]4)cc3)ccnc2c1 ) has viability at 48 h, 0.2 µM equal to > 70%

----------
assay.summary: MTT cell viability assay, compounds at 5, 1 and 0.2 μM, 48 hours
Assay type: cell-based
reported.conditions: human, A549 tumor cells, 1 μM
readout.name: viability at 48 h, 1 µM

compound: Cc1ccc(-c2nnc(Nc3cccc(C(F)(F)F)c3)[nH]2)cc1Oc1ccncc1 [Compound 178]
viability at 48 h, 1 µM: < 50%
//
compound: COc1cc2ncnc(Oc3ccc(-c4nnc(Nc5cccc(C(F)(F)F)c5)[nH]4)cc3)c2cc1OC [Compound 160]
viability at 48 h, 1 µM: > 70%
//
compound: COCCOc1nc(N)cc(Oc2ccc(-c3nnc(Nc4cccc(C(F)(F)F)c4)[nH]3)cc2)n1 [Compound 78]
viability at 48 h, 1 µM: > 70%

Per the records, this compound ( COc1ccc2c(Oc3ccc(-c4nnc(Nc5cccc(C(F)(F)F)c5)[nH]4)cc3)ccnc2c1 [Compound 11] ) has viability at 48 h, 1 µM equal to > 70%

----------
// reported viability at 48 h, 5 µM per item
assay.summary: MTT cell viability assay, compounds at 5, 1 and 0.2 μM, 48 hours
Assay type: cell-based
reported.conditions: human, A549 tumor cells, 5 μM

See these solved cases before continuing.
entry.smiles: CSc1nc(N)cc(Oc2c(C)cc(-c3nnc(Nc4cccc(C(F)(F)F)c4)[nH]3)cc2C)n1
viability at 48 h, 5 µM: > 70%
--
entry.smiles: CS(=O)(=O)c1nc(N)cc(Oc2ccc(-c3nnc(Nc4cccc(C(F)(F)F)c4)[nH]3)cc2)n1
viability at 48 h, 5 µM: > 70%

Per the records, this compound ( COc1nccc(Oc2cccc(-c3nnc(Nc4cccc(C(F)(F)F)c4)[nH]3)c2)n1 ) has viability at 48 h, 5 µM equal to > 70%

Per the records, this compound ( O=[N+]([O-])c1cc(F)cc(Oc2ccc(-c3nnc(Nc4cccc(C(F)(F)F)c4)[nH]3)cc2)c1 ) has viability at 48 h, 5 µM equal to 50 to 70%

Per the records, this compound ( FC(F)(F)c1cccc(Nc2nnc(-c3ccc(Oc4ccncc4)cc3)o2)c1 ) has viability at 48 h, 5 µM equal to 50 to 70%
